Entries and their measured TGI follow.
- Tested on: COLO 205 colon
- assay_remarks: NCI tumour cell line growth inhibition, 48 h
observed_property: TGI

>>> print(df.to_string())
                                    compound  observed_result
 0  Cn1c(=O)c2nc3c(=O)n(C)c(=O)n(CC(N)=O)c3nc2n(C)c1=O         > 100 µM
 1  O=C(c1ccc(C(F)(F)F)c(Cl)c1)N(Cc1ccc(Cl)cc1)c1ccc(-c2cc(C(F)(F)F)[nH]n2)c(O)c1          1.64 µM
 2  O=C(CSCC(=O)N/N=C/c1ccccc1)N/N=C\c1ccccc1         > 100 µM
 3  CC(O)CN1c2ccccc2Sc2ccccc21 (stereo not given)         > 100 µM
 4         Cc1ccc(S(=O)(=O)N2CCN(C=S)CC2)cc1         > 100 µM
 5  CCOC(=O)C1=C(C)NC(=O)NC1CN1C(=O)c2ccccc2C1=O (stereo not given)         > 100 µM
 6  COC(=O)c1cc(=O)n(-c2ccc3nn(C)nc3c2)cc1C(=O)OC         > 100 µM
 7  O=C(Cc1ccccc1)NN1C(=O)/C(=C\c2cccc([N+](=O)[O-])c2)SC1=Nc1ccccc1         > 100 µM
 8  N#CCC(=O)N/N=C1/C(=O)N(c2cc(Cl)ccc2Cl)C(=O)C(=O)C1c1nc2ccccc2s1 (stereo not given)         > 100 µM
 9   CCC/C(Cl)=N/OC(=O)Nc1cc(C(F)(F)F)ccc1OC          3.45 µM
10     O=C(O)C1(Cc2ccccc2)Cc2cc3c(cc2C1)CCC3         > 100 µM
11  Cc1ccc(OCC2OC(n3cnc4nc(Nc5ccc(Cl)c(Cl)c5)nc(Cl)c43)CC2Oc2ccc(C)cc2)cc1 (stereo not given)         > 100 µM
12  Cc1cc(N2CCCCC2)nc(NC2CCCC(Nc3ccnc4cc(Cl)ccc34)C2)n1 (stereo not given)          2.98 µM
13  C[Si](C)(C)c1ccc(-c2c3ccc(-c4cc(Br)cc(Br)c4)nc3nc3nc(-c4cc(Br)cc(Br)c4)ccc23)cc1         > 100 µM
14  COC(=O)c1ccc(/C=C(\c2ccc([N+](=O)[O-])o2)S(=O)(=O)c2ccc(NC(C)=O)cc2)o1          7.56 µM
15  NC(CCOCCP(=O)(O)CCC1C=CC=CC1)C(=O)O (stereo not given)         > 100 µM
16  CCOC(=O)CC[C@H](NC(=O)N[C@H](C)c1ccccc1)C(=O)OCC          32.7 µM
17               Cc1ccc(Cc2nn(C)c(=O)n2N)cc1         > 100 µM
18  CC(C)(C)c1cc(/C=N/NC(=O)c2ccccc2NC(=O)c2cccs2)c(O)c(C(C)(C)C)c1          22.2 µM
19  O=C(COc1cccc(/C=C2\CSc3ccc(Cl)cc3C2=O)c1)c1ccc(Cl)cc1          20.2 µM

====

- Tested on: MOLT-4 leukemia
- assay_remarks: NCI tumour cell line growth inhibition, 48 h

molecule	GI50
COC1=C(C)C(=O)c2c(c(CCCl)c3n2CCC3OC(C)=O)C1=O (centres undefined)	4110 nM
O=Nc1c(-c2c(O)[nH]c3cc(Br)ccc23)[nH]c2ccccc12	2990 nM
Clc1cc(Cl)c(OCCCCCCN2CCNCC2)c(Cl)c1	2040 nM
O=C(c1ccc(C(F)(F)F)c(Cl)c1)N(Cc1ccc(Cl)cc1)c1ccc(-c2cc(C(F)(F)F)[nH]n2)c(O)c1	1320 nM
COc1ccc(/C=C2\COc3ccc(O)c(O)c3C2=O)c(OC)c1OC	1870 nM
COC(=O)[C@]12CC[C@@H](C)[C@H](C)[C@@H]1C1=CC[C@@H]3[C@@]4(C)C[C@@H](OC(=O)/C=C/c5ccccc5)[C@H](O)[C@@](C)(CO)[C@@H]4[C@H](O)C[C@@]3(C)[C@]1(C)CC2	2270 nM
O=C1c2cccnc2C(=O)c2c1c(C(=O)OCCN1CCCCC1)c1ccccn21	162 nM
O=C1CC(c2ccccc2)Cc2nc3ccc(Br)cc3cc21 (centres undefined)	63.9 nM
O=C(C=P(c1ccccc1)(c1ccccc1)c1ccccc1)CCl	1590 nM
Cn1cc(-c2nc(-c3c[nH]c4ncccc34)cs2)c2ccccc21	23000 nM
Oc1c(Cl)cc(Cl)cc1/C=N/Nc1nnc(N/N=C/c2cc(Cl)cc(Cl)c2O)c2ccccc12	363 nM
O=C(COc1cccc(/C=C2\CSc3ccc(Cl)cc3C2=O)c1)c1ccc(Cl)cc1	1840 nM
Cc1cc(N2CCCCC2)nc(NC2CCCC(Nc3ccnc4cc(Cl)ccc34)C2)n1 (centres undefined)	1210 nM
COc1cc(/C=C/c2cc(/C=C/c3ccc(O)c(OC)c3)n(C(=O)Nc3ccccc3Cl)n2)ccc1O	269 nM

Taken from PubChem BioAssay (NCI).
